Molecular target: UniProt:Q9NR96
Sequence (Q9NR96 26-1032): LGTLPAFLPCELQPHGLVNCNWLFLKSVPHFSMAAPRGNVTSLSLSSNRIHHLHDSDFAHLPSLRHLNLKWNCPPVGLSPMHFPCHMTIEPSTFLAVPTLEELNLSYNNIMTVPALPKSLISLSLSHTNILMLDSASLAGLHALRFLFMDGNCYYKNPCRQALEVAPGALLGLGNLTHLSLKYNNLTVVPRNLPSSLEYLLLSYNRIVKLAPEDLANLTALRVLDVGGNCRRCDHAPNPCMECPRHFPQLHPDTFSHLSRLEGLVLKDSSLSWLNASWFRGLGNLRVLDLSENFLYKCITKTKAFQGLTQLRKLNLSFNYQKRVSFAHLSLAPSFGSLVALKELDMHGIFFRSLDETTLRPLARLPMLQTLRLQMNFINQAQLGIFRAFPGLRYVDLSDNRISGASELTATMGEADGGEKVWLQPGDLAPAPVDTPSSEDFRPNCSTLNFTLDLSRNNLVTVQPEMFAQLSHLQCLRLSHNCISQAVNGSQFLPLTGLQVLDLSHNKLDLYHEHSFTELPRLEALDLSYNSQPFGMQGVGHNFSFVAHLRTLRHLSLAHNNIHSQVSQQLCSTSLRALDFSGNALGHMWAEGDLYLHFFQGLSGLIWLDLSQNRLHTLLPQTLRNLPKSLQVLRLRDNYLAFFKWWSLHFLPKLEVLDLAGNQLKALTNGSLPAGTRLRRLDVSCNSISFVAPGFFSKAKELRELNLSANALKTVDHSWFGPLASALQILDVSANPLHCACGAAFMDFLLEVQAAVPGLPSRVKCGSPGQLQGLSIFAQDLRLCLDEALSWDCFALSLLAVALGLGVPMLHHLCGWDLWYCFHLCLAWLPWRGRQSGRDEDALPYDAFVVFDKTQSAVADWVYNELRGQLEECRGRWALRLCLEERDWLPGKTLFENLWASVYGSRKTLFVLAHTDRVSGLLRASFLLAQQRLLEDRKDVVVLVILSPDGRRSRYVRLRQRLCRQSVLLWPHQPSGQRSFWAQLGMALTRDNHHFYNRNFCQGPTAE
Experiment: TLR9 inhibition reporter assay (HEK-Blue SEAP)
Settings: HEK-Blue cells overexpressing human TLR9, stimulated with ODN2006 5 nM, 22 hour incubation
Measured Metric: pIC50
Give only the number. pIC50 is defined as minus log10 of concentration in molar units.

Worked examples, 3 compounds total:
Cc1cc(-c2cc(C)c3ncnn3c2)cc2[nH]nc(C3CCN(CC(=O)N(C)C)CC3)c12 | 5.67
Cc1cc(-c2cc(C)c3ncnn3c2)cc2[nH]nc(OC3CCC(NC4CC4)CC3)c12 (single isomer, unassigned) [Example 190] | 5.35
Cc1cc2c(C3CCNCC3)c[nH]c2cc1-c1cc(C)c2ncnn2c1 | 6.18

Find the recorded pIC50 belonging to COc1cc(-c2cc3[nH]ncc3cc2C)cn2ncnc12 and report it. 5.04

Likewise for Cc1cc(-c2cc(C)c3ncnn3c2)cc2[nH]nc(OC3CCC(NCCS(C)(=O)=O)CC3)c12 (stereo not drawn) [Example 188] ? 5.36

Do the same for Cc1cc(-c2cc3[nH]nc(C4CCC(NCCS(C)(=O)=O)CC4)c3cc2C(C)C)cn2ncnc12 (stereo not drawn) [Example 127] please 5.07

One more compound: Cc1cc(-c2cc3[nH]nc(C4CCC(NCC(=O)N(C)C)CC4)c3cc2C(C)C)cn2ncnc12 (single isomer, unassigned) [Example 125] 4.92

Now give it for Cc1cc(-c2cc(C)c3ncnn3c2)cc2[nH]nc(OC3CCC(N(C)C)CC3)c12 (single isomer, unassigned) [Example 179] too. 5.68

Same read-out for Cc1cc2c(C3CCN(CC(C)(C)O)CC3)n[nH]c2cc1-c1cc(C)c2ncnn2c1 ? 5.40

Try this compound next: Cc1cc2c(C3CCN(C4COC4)CC3)n[nH]c2cc1-c1cc(C)c2ncnn2c1 5.04

Try the compound COc1cc(-c2cc3[nH]nc(C4CCN(C(=O)CN(C)C)CC4)c3cc2C(C)C)cn2ncnc12 4.95

COc1cc(-c2cc3[nH]nc(C4CCC(N5CC(OC)C5)CC4)c3cc2C(C)C)cn2ncnc12 (single isomer, unassigned) [Example 147] , same question. 4.88

###

# IC50 listing for each entry below
Biological target: UniProtKB Q9NR97
Sequence (Q9NR97 27-1041): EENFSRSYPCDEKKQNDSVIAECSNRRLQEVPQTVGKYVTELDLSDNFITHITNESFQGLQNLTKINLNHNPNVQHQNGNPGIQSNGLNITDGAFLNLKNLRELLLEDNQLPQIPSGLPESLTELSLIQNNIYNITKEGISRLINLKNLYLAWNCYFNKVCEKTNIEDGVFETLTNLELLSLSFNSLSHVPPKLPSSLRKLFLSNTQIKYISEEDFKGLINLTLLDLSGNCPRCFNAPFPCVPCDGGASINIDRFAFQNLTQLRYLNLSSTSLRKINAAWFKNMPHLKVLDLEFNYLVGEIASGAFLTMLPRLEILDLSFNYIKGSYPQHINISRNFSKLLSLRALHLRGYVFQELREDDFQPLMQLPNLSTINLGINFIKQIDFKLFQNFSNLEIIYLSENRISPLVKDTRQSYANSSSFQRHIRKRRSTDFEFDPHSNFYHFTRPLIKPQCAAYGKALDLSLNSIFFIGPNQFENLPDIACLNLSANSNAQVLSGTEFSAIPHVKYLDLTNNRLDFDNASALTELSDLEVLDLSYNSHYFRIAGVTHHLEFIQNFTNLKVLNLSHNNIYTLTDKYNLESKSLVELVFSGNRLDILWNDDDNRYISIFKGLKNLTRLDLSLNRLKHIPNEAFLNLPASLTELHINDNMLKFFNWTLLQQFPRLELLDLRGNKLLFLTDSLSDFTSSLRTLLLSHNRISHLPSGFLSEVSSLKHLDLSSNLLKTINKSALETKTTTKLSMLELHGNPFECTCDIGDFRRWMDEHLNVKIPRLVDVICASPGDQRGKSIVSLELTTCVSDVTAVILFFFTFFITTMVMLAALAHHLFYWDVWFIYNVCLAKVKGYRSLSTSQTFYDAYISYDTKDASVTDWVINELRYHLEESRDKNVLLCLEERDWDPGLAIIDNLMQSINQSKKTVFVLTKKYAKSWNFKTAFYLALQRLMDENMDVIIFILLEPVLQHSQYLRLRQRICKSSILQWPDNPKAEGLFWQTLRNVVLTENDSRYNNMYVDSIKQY
Test: TLR8 inhibition reporter assay (HEK-Blue SEAP)
Conditions: HEK-Blue cells overexpressing human TLR8, stimulated with R848 15.9 μM, 22 hour incubation
Enter your answer as a number in nM; do not include the unit.

For orientation, consider the following solved cases.
Cc1cc2c(C3CCC(N(C)C)CC3)n[nH]c2cc1-c1cc(C)c2ncnn2c1 (single isomer, unassigned) [Example 3] | 0.4
Cc1cc(-c2cc3[nH]nc(C4CCC(N5CC6(C5)CS(=O)(=O)C6)CC4)c3cc2C(C)C)cn2ncnc12 (single isomer, unassigned) [Example 142] | 0.2
Cc1cc(-c2cc3[nH]nc(C4CCC(N5CC(OC(C)C)C5)CC4)c3cc2C(C)C)cn2ncnc12 (single isomer, unassigned) [Example 161] | 0.5
Cc1cc(-c2cc3[nH]nc(C4CCC(N5CCCC5)CC4)c3cc2C(C)C)cn2ncnc12 (single isomer, unassigned) [Example 130] | 0.1
Cc1cc(-c2cc(C)c3ncnn3c2)cc2[nH]nc(OC3CCN(C)CC3)c12 | 0.5

Here's the next entry for you.
Could you share what IC50 was measured for Cc1cc(-c2cc3[nH]nc(C4CCC(N5CCC6(CCOC6)C5)CC4)c3cc2C(C)C)cn2ncnc12 (single isomer, unassigned) [Example 209] , tested on UniProtKB Q9NR97? 0.05

###

Target: human TLR7 (Homo sapiens, UniProt Q9NYK1)
Sequence (Q9NYK1 27-1049): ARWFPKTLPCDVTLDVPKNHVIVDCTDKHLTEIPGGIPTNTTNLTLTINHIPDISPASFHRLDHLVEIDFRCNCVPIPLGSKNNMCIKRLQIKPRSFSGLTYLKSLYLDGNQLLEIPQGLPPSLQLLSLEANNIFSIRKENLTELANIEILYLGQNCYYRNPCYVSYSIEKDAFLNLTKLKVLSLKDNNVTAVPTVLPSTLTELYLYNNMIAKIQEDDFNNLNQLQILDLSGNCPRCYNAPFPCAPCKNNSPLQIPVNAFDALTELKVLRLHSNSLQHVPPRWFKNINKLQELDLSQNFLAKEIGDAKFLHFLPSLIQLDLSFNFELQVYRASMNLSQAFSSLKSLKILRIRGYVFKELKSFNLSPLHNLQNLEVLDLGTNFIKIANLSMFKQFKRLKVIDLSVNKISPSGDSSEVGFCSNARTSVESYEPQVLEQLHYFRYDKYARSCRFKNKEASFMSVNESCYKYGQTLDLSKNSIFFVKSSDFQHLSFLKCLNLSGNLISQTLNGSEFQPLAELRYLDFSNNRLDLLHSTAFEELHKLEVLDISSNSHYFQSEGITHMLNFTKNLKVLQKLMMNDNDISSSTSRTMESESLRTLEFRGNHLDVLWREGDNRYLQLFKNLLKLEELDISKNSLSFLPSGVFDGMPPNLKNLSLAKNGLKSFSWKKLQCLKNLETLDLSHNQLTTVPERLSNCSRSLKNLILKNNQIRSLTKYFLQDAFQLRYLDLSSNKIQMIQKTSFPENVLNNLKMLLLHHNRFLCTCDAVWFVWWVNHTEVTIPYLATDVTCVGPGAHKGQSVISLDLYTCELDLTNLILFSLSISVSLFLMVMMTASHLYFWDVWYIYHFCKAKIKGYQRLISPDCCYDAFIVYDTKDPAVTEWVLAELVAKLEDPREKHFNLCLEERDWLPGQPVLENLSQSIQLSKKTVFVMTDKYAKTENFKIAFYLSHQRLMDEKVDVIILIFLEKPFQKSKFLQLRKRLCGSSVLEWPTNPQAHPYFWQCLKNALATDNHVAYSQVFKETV
Experiment: TLR7 inhibition reporter assay (HEK-Blue SEAP)
Details: HEK-Blue cells overexpressing human TLR7, stimulated with gardiquimod 7.5 μM, 22 hour incubation
Excerpt: TLR7/8/9 Inhibition Reporter Assays HEK-Blue™-cells (Invivogen) overexpressing human TLR7, TLR8 or TLR9 receptors were used for screening inhibitors of these receptors using an inducible SEAP (secreted embryonic alkaline phosphatase) reporter gene under the control of the IFN-β minimal promoter fused to five NF-κB and AP-1-binding sites. […]
Measured Metric: IC50 (nM)
Answer in nM, number only, no unit symbol.

# annotated cases, reported IC50 shown
Cc1cc2c(C3CCC(NC4COC4)CC3)n[nH]c2cc1-c1cc(C)c2ncnn2c1 (single isomer, unassigned) [Example 35] | 29.7
Cc1cc(-c2cc(C)c3ncnn3c2)cc2[nH]cc(C3CCNCC3)c12 [Example 2] | 0.9
Cc1cc(-c2cc3[nH]nc(C4CCC(N5CCCC5)CC4)c3cc2C(C)C)cn2ncnc12 (single isomer, unassigned) [Example 130] | 0.2
Cc1cc(-c2cc3[nH]nc(C4CCC(N5CCC(F)C5)CC4)c3cc2C(C)C)cn2ncnc12 (stereo not drawn) [Example 163] | 0.9
Cc1cc2c(C3CCN(C4COC4)CC3)n[nH]c2cc1-c1cc(C)c2ncnn2c1 [Example 73] | 52.3
Cc1cc2c(C3CCC(NC4COC4)CC3)n[nH]c2cc1-c1cc(C)c2ncnn2c1 (single isomer, unassigned) [Example 34] | 8.1
Cc1cc(-c2cc(C)c3ncnn3c2)cc2[nH]nc(OC3CCN(C4CCOCC4)CC3)c12 [Example 178] | 6.1
CCc1cc2c(OC3CCC(N(C)C)CC3)n[nH]c2cc1-c1cc(C)c2ncnn2c1 (single isomer, unassigned) [Example 191] | 2.6

What value of IC50 has been reported for the following compound? CCc1cc(-c2cc(C)c3ncnn3c2)cc2[nH]nc(OC3CCNCC3)c12 [Example 195] 3.7

Quick one: Cc1cc(-c2cc3[nH]nc(C4CCNCC4)c3cc2C(C)C)cn2ncnc12 [Example 102] 1

Would you mind doing Cc1cc(-c2ccc3c(C4CCNCC4)n[nH]c3c2)cn2ncnc12 [Example 17] as well? 388
